test system: 380; assay: selective drug sensitivity score (sDSS, relative to normal bone marrow) (sDSS (score)); higher = more potent and effective on the cell line relative to normal bone marrow cells; conditions: 72 h;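 further: ALL cell lines in 384-well plates, five doses spanning 10,000-fold, each plate scaled between vehicle and 100 µmol/L benzalkonium chloride controls, sDSS an adapted area-under-curve metric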
measured-metric: selective drug sensitivity score

compound	measured-metric	observed-value
COCCNCc1ccc(-c2cc3nccc(Oc4ccc(NC(=S)NC(=O)Cc5ccc(F)cc5)cc4F)c3s2)nc1 [Glesatinib] (top concentration 2500 nM)	selective drug sensitivity score	-1.96
Cc1ccc(C(=O)Nc2cccc(C(F)(F)F)c2)cc1Nc1nc(-c2cccnc2)nc2c1cnn2C [NVP-BHG712] (top concentration 10000 nM)	selective drug sensitivity score	1.28
COc1cc(N2CCC(N3CCN(C)CC3)CC2)ccc1Nc1ncc(Cl)c(Nc2ccccc2P(C)(C)=O)n1 [Brigatinib] (top concentration 1000 nM)	selective drug sensitivity score	-3.34
Cn1cncc1[C@@](N)(c1ccc(Cl)cc1)c1ccc2c(c1)c(-c1cccc(Cl)c1)cc(=O)n2C [Tipifarnib] (top concentration 10000 nM)	selective drug sensitivity score	9.2
CC(C)Oc1ccc(C(=O)N[C@H](CNC(=O)CN(C)C)Cc2ccc(-c3cn4cccc([C@H](C)O)c4n3)cc2)cc1Cl (top concentration 10000 nM)	selective drug sensitivity score	10.7
CC(C)C(=O)Nc1ccc([N+](=O)[O-])c(C(F)(F)F)c1 [Flutamide] (top concentration 10000 nM)	selective drug sensitivity score	-0.56
COc1cc2c(Oc3ccc4[nH]c(C)cc4c3F)ncnc2cc1OCCCN1CCCC1 [Cediranib] (top concentration 1000 nM)	selective drug sensitivity score	0
CCNC(=O)CCC/C=C\C[C@@H]1[C@@H](/C=C/[C@@H](O)CCc2ccccc2)[C@H](O)C[C@@H]1O [Bimatoprost] (top concentration 5500 nM)	selective drug sensitivity score	0
NC[C@@](O)(c1ccc(Cl)cc1)c1ccc(-c2cn[nH]c2)cc1 (top concentration 10000 nM)	selective drug sensitivity score	13.9
O=c1[nH]cc(F)c(=O)[nH]1 [Fluorouracil] (top concentration 10000 nM)	selective drug sensitivity score	1.86
CC[C@H](C)C(=O)O[C@H]1C[C@H](O)C=C2C=C[C@H](C)[C@H](CC[C@@H](O)C[C@@H](O)CC(=O)O)[C@H]21 [Pravastatin] (top concentration 10000 nM)	selective drug sensitivity score	3.04
NC(=S)N/N=C/c1ncccc1N [Triapine] (top concentration 10000 nM)	selective drug sensitivity score	5.88
COc1cc2ncnc(Nc3cccc(Cl)c3F)c2cc1OC(=O)N1CCN(C)C[C@H]1C [AZD3759] (top concentration 1000 nM)	selective drug sensitivity score	-0.04
